Numbers sourced from PubChem BioAssay (EPA / NIEHS).

procedure text: CCTE_Deisenroth_AIME_384WELL_CTox_Inactive: Cytotoxicity Assessment (CTOX) in CCTE's 384-well Estrogen Receptor Transactivation Assay without AIME metabolic competence (metabolism negative), Deisenroth Lab (AID 2284039);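 also: cell viability via live-cell protease substrate cleaved to fluorescent probe; cells exposed 24 h to medium preincubated 2 h with alginate-water beads without S9; loss of fluorescence signal means loss of viability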
Description: CCTE_Deisenroth_AIME_384WELL (AIME metabolism assay) is a cell-based, single-readout assay that uses VM7Luc4E2, a human mammary gland/breast cell line, with measurements taken at 24 hour after chemical dosing in a 384-well plate.CCTE_Deisenroth_AIME_384WELL_CTox_Inactive is one of four assay components measured or calculated from the CCTE_Deisenroth_AIME_384WELL assay. […] This assay endpoint, CCTE_Deisenroth_AIME_384WELL_CTox_Inactive, was analyzed with bidirectional fitting in the ERTA assay. […]
Records with an inconclusive call do not appear. Activity calls are given as the source filed them. The calls were made as follows: active = hit-call score of the fitted dose curve at least 0.9, where 1 is the maximum; inconclusive = response in the unintended direction; inactive = score below 0.9.
Permitted responses: active, inactive

Record excerpt, results attached:
# compound, label
data = [
    ("NC(CO)(CO)CO", "inactive"),
    ("O=C(C=Cc1ccccc1)OCc1ccccc1", "inactive"),
    ("Oc1ccc(Cl)cc1Cc1cc(Cl)ccc1O", "active"),
    ("CCCCC(CC)CCC(CC(C)C)OS(=O)(=O)O (stereo not given)", "inactive"),
    ("CCOC(=O)CC", "inactive"),
]

Could you now consider this next compound?
[Q] Please let me know the test result on file for `c1ccc2c(c1)ccc1cc3c(ccc4ccccc43)cc12` .
[A] inactive

* * *

procedure text: CCTE_Shafer_MEA_dev_interburst_interval_mean: CCTE's Neural Network Formation Assay for Mean Interburst Interval, Shafer Lab (AID 2284046);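 also: well-mean interburst interval of bursting electrodes as AUC over four recording days; curve fitted for decrease in interburst interval relative to DMSO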
Active and inactive are the calls of the source. The calls were made as follows: active = hit-call score of the fitted dose curve at least 0.9, where 1 is the maximum; inactive = score below 0.9.
Permitted responses: Yes (active), No (inactive)

Record excerpt, results attached:
# line notation, label
rows = [
    ("FC(F)=C(F)OC(F)(F)C(F)(F)C(F)(F)F", "No"),
    ("CC=CC(F)(F)C(F)(F)C(F)(F)F", "No"),
    ("CN(C)c1ccc(C(=N)c2ccc(N(C)C)cc2)cc1", "Yes"),
]

Could you now consider this next compound?
[Q] Please let me know the test result on file for `CCOC(F)(F)C(F)(F)C(F)(F)C(F)(F)F` .
[A] No

* * *

system under test: Bile acid receptor (Homo sapiens) (UniProt Q96RI1)
Sequence (Q96RI1 whole entry, looked up): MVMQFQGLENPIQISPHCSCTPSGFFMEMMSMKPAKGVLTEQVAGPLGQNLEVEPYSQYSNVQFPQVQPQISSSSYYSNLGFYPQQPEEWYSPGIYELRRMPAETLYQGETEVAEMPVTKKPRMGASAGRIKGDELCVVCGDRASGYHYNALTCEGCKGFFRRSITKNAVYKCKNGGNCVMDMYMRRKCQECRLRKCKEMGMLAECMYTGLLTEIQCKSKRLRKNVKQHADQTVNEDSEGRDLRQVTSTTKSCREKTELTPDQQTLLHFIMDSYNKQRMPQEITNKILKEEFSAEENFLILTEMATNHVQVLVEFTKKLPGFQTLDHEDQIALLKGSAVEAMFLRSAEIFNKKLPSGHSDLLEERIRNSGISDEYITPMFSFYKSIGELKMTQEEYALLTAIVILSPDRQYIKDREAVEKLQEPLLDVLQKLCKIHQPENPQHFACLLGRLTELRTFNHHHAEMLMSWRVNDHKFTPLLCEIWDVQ
procedure text: ATG_IR1_CIS: Attagene CIS-FACTORIAL HepG2 Assay for human Nuclear Receptor Subfamily 1 Group H Member 4 (NR1H4), IR1 submotif (AID 2282946)
assay context: IR1 reporter transcription, actives raise or lower the signal
Activity calls are given as the source filed them. Rule for the calls: active = hit-call score of the fitted dose curve at least 0.9, where 1 is the maximum; inactive = score below 0.9.
Permitted responses: True for active, False for inactive

Record excerpt, results attached:
# molecule, label
measured = [
    ("CC=C1CC2C=CC1C2 (stereo not drawn)", "False"),
    ("c1ccc(CCCc2ccncc2)cc1", "False"),
    ("CC/C=C\\C/C=C\\C/C=C\\CCCCCCCC(=O)O", "False"),
    ("O=C1OC(=O)c2cc(Oc3ccc4c(c3)C(=O)OC4=O)ccc21", "False"),
    ("Oc1ccc(Cl)cc1Cc1cc(Cl)ccc1O", "True"),
]

[Q] Please let me know the test result on file for `Cc1ccc(OC(=O)CC(C)C)cc1` .
[A] False

[Q] Please let me know the test result on file for `Cc1cc(C)c(C)c(C)c1` .
[A] False

* * *

procedure text: ATG_RORE_CIS: Attagene CIS-FACTORIAL HepG2 Assay for human RAR-related Orphan Receptor Element (RORE) (AID 2282959)
assay context: HepG2 Attagene cis-factorial RORE reporter, mRNA; actives raise or lower the signal
Activity calls are given as the source filed them. How the source made its calls: active means hit-call score of the fitted dose curve at least 0.9, where 1 is the maximum; inactive means score below 0.9.
Permitted responses: T (active), F (inactive)

# molecule, label
records = [
    ("O=C1CCC(=O)N1Cl", "F"),
]

[Q] Please let me know the test result on file for `O=P(O)(O)Oc1ccccc1` .
[A] F

[Q] Please let me know the test result on file for C=CCOCC(O)CCl (stereo unspecified) .
[A] F

[Q] Please let me know the test result on file for `OC1CCCCCCCCCCC1` .
[A] F
